- Tested on: BChE (Homo sapiens, UniProt P06276)
- Sequence (P06276 29-602): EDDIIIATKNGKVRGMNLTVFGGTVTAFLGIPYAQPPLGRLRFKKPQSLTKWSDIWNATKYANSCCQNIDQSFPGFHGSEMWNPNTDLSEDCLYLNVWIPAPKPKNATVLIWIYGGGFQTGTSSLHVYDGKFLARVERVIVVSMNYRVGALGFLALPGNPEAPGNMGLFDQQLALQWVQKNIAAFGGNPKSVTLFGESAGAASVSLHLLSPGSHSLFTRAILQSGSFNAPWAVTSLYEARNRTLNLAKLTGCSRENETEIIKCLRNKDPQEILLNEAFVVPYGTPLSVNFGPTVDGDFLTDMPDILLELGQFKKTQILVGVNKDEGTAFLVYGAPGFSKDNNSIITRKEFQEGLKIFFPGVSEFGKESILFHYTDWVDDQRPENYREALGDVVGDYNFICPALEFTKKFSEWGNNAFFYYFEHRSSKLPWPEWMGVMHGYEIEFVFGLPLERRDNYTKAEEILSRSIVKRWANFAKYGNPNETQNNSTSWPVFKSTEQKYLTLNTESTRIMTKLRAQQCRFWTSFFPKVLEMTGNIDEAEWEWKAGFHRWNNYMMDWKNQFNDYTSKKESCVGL
- Procedure details: biochemical
- Experimental context: compounds concentration 100 µM; read-out: Inhibition Rate BChE
Measured endpoint: inhibition at 100 µM (%)

>>> measured_result("O=C(NCc1ccc(Cl)c(Cl)c1)N1CCc2ccccc2[C@@H]1c1ccccc1")
12.1
>>> measured_result("O=C(NCc1cccc(Cl)c1)N1CCc2ccccc2[C@@H]1c1ccccc1")
3.4
>>> measured_result("COc1ccc(CNC(=O)N2CCc3ccccc3[C@@H]2c2ccccc2)cc1OC")
9.4
>>> measured_result("Cc1cccc(CNC(=O)N2CCc3ccccc3[C@@H]2c2ccccc2)c1")
8.7
>>> measured_result("O=C(NCc1c(F)cccc1F)N1CCc2ccccc2[C@@H]1c1ccccc1")
24.9
>>> measured_result("O=C(NCc1cccc(C(F)(F)F)c1)N1CCc2ccccc2C1c1ccccc1 (stereo in doubt)")
49.1
>>> measured_result("COc1ccc(CNC(=O)N2CCc3ccccc3[C@@H]2c2ccccc2)cc1")
40.7

###

IC50 listing for selected compounds.
- System: MAO
- Procedure details: MAO activity assay (total MAO)
- Format: biochemical
Measured endpoint: IC50 (nM)

>>> measured_result("COc1cccc(CNC(=O)N2CCc3ccccc3[C@@H]2c2ccccc2)c1")
2080
>>> measured_result("Cc1ccccc1CNC(=O)N1CCc2ccccc2[C@@H]1c1ccccc1")
774
>>> measured_result("O=C(NCc1cccc(Br)c1)N1CCc2ccccc2[C@@H]1c1ccccc1")
1340
>>> measured_result("C#CCN[C@@H]1CCc2ccccc21 [Rasagiline, reference compound]")
338
>>> measured_result("COc1ccc(CNC(=O)N2CCc3ccccc3[C@@H]2c2ccccc2)c(OC)c1")
958
>>> measured_result("O=C(NCc1ccc(F)cc1)N1CCc2ccccc2[C@@H]1c1ccccc1")
5780
>>> measured_result("O=C(NCc1ccc(Br)cc1)N1CCc2ccccc2[C@@H]1c1ccccc1")
1930

###

- Procedure details: MTT cytotoxicity test
- Type: cell-based
- Experimental context: mouse; L929 cells, compared with the blank control, 3.125 to 100 μM
Measured endpoint: viability at 24 h

>>> measured_result("O=C(NCc1ccc(Br)cc1)N1CCc2ccccc2[C@@H]1c1ccccc1 [2j]")
"> 90%"
>>> measured_result("COc1cccc(CNC(=O)N2CCc3ccccc3[C@@H]2c2ccccc2)c1 [2t]")
"> 90%"
>>> measured_result("O=C(NCc1cccc(Br)c1)N1CCc2ccccc2[C@@H]1c1ccccc1 [2i]")
"> 90%"
>>> measured_result("COc1ccc(CNC(=O)N2CCc3ccccc3[C@@H]2c2ccccc2)c(OC)c1 [2v]")
"> 90%"
>>> measured_result("O=C(NCc1ccc(F)cc1)N1CCc2ccccc2[C@@H]1c1ccccc1 [2d]")
"> 90%"
>>> measured_result("Cc1ccccc1CNC(=O)N1CCc2ccccc2[C@@H]1c1ccccc1 [2p]")
"> 90%"

###

- Tested on: BChE (Homo sapiens)
- Procedure details: biochemical
- Experimental context: compounds concentration 100 µM; read-out: Inhibition Rate BChE
Measured endpoint: inhibition at 100 µM

>>> measured_result("N#Cc1ccc(CNC(=O)N2CCc3ccccc3[C@@H]2c2ccccc2)cc1 [2ac]")
"17.7%"
>>> measured_result("O=C(NCc1ccccc1F)N1CCc2ccccc2[C@@H]1c1ccccc1 [2b]")
"49%"
>>> measured_result("COc1cccc(CNC(=O)N2CCc3ccccc3[C@@H]2c2ccccc2)c1 [2t]")
"55%"
>>> measured_result("O=C(NCc1ccc(Br)cc1)N1CCc2ccccc2[C@@H]1c1ccccc1 [2j]")
"34.5%"
>>> measured_result("COc1ccccc1CNC(=O)N1CCc2ccccc2[C@@H]1c1ccccc1 [2s]")
"39.6%"

###

- Tested on: MAO-B (Homo sapiens, UniProt P27338)
- Construct: purchased Aladdin Reagent Chemicals
- Sequence (P27338 whole entry, species assumed): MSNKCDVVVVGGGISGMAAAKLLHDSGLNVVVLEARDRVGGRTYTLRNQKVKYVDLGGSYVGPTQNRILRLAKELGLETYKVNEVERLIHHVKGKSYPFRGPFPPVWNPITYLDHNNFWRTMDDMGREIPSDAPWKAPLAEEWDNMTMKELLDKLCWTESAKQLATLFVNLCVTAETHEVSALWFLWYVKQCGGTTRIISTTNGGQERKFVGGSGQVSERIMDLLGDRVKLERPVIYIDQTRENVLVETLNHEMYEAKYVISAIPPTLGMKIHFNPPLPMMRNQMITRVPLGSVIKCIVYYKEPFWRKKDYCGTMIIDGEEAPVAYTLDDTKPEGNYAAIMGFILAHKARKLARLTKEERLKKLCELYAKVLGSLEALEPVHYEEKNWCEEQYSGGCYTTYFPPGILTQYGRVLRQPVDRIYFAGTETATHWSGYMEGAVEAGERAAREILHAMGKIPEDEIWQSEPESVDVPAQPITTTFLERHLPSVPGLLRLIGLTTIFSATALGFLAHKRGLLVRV
- Procedure details: MAO activity assay, MAO-B
- Format: biochemical
IC50 listing for selected compounds.
Measured endpoint: IC50 (µM)

>>> measured_result("COc1cccc(CNC(=O)N2CCc3ccccc3[C@@H]2c2ccccc2)c1")
1.61
>>> measured_result("Cc1ccccc1CNC(=O)N1CCc2ccccc2[C@@H]1c1ccccc1")
3.88
>>> measured_result("COc1ccc(CNC(=O)N2CCc3ccccc3[C@@H]2c2ccccc2)c(OC)c1")
3.52
>>> measured_result("O=C(NCc1cccc(Br)c1)N1CCc2ccccc2[C@@H]1c1ccccc1")
4.3

###

- Tested on: MAO-A (Homo sapiens, UniProt P21397)
- Construct: purchased Aladdin Reagent Chemicals
- Sequence (P21397 whole entry): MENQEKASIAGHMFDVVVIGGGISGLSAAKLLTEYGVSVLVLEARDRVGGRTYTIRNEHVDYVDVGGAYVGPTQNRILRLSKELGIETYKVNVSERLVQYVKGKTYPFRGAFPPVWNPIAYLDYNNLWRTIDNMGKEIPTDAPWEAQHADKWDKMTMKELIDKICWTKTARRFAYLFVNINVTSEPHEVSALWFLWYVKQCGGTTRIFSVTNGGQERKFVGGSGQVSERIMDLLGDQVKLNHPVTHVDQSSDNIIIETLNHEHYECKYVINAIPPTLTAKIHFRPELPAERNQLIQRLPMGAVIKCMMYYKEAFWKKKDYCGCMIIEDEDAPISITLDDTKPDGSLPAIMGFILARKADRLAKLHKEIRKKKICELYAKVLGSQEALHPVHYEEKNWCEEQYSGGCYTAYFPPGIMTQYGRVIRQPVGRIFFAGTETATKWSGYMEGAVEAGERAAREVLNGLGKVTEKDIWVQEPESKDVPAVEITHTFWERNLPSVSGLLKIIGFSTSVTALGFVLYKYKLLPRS
- Procedure details: MAO activity assay, MAO-A
- Type: biochemical
- Experimental: The enzyme activity analysis was performed according to the procedure reported by Matsumoto et al. with slight modifications. All materials used in the enzymatic assays were purchased from Aladdin Reagent Chemicals. […] The concentrations of the synthesized compounds altered from 0.001 µM to 100 µM for the MAO-A and -B enzyme activity inhibition. […] The inhibitory effect of enzyme activity was calculated as a percentage of product formation compared to the corresponding control with no inhibitor. […]
pIC50: −log10 of the molar value.
pIC50 listing for selected compounds.
Measured endpoint: pIC50

>>> measured_result("COc1ccc(CNC(=O)N2CCc3ccccc3[C@@H]2c2ccccc2)c(OC)c1 [2v]")
5.45
>>> measured_result("Cc1ccccc1CNC(=O)N1CCc2ccccc2[C@@H]1c1ccccc1 [2p]")
5.53
>>> measured_result("O=C(NCc1ccc(Br)cc1)N1CCc2ccccc2[C@@H]1c1ccccc1 [2j]")
5.61
>>> measured_result("O=C(NCc1cccc(Br)c1)N1CCc2ccccc2[C@@H]1c1ccccc1 [2i]")
5.81
>>> measured_result("O=C(NCc1ccc(F)cc1)N1CCc2ccccc2[C@@H]1c1ccccc1 [2d]")
5.86
>>> measured_result("COc1cccc(CNC(=O)N2CCc3ccccc3[C@@H]2c2ccccc2)c1 [2t]")
5.60
